Please respond with reported log10 of GI50 for every item in the list.
system: 184B5; test: SRB antiproliferative assay, 184B5 non-cancer breast cells; assay type: cell-based, human; settings: Homo sapiens; SRB, 48 h incubation, 184B5 non-cancer immortalised breast cells; read-out: GI50 184B5
The common logarithm of GI50 in µM is what is listed.

// worked examples, log10 of GI50 included
smiles_entry=FC(F)(F)c1ccc2c(N3CCN(C(=S)Nc4cccc5ccccc45)CC3)ccnc2c1 number=1.70
smiles_entry=O=C(NC1CCCCC1)N1CCN(c2ccnc3cc(C(F)(F)F)ccc23)CC1 number=1.32

Give log10 of GI50 for each listed item.
1. O=C(Nc1cccc2ccccc12)N1CCN(c2ccnc3cc(C(F)(F)F)ccc23)CC1
2. FC(F)(F)c1ccc(NC(=S)N2CCN(c3ccnc4cc(C(F)(F)F)ccc34)CC2)cc1

[A]
[1.45, 0.94]

###

tested on: 184B5; test: SRB antiproliferative assay, 184B5 non-cancer breast cells; type: cell-based, human; settings: Homo sapiens; SRB, 48 h incubation, 184B5 non-cancer immortalised breast cells; read-out: GI50 184B5
Provide the recorded log10 of GI50 for the entries that follow.
Scale: decimal log of GI50, GI50 in µM.

smiles_entry=O=C(Nc1ccccc1)N1CCN(c2ccnc3cc(Cl)ccc23)CC1 tested_on=184B5 number=1.15
smiles_entry=O=C(Nc1c(Cl)cc(Cl)cc1Cl)N1CCN(c2ccnc3cc(C(F)(F)F)ccc23)CC1 tested_on=184B5 number=1.52
smiles_entry=Cc1cccc(C)c1NC(=S)N1CCN(c2ccnc3cc(Cl)ccc23)CC1 tested_on=184B5 number=1.22
smiles_entry=FC(F)(F)c1ccc2c(N3CCN(C(=S)Nc4ccccc4)CC3)ccnc2c1 tested_on=184B5 number=1.39
smiles_entry=FC(F)(F)c1ccc2c(N3CCN(C(=S)NCCN4CCOCC4)CC3)ccnc2c1 tested_on=184B5 number=1.24
smiles_entry=O=C(Nc1ccccc1)N1CCN(c2ccnc3cc(C(F)(F)F)ccc23)CC1 tested_on=184B5 number=1.09

I would be grateful if you could provide log10 of GI50 for each of the following entries.
1. O=C(Nc1ccc(C(F)(F)F)cc1)N1CCN(c2ccnc3cc(Cl)ccc23)CC1
2. S=C(Nc1cccc2ccccc12)N1CCN(c2ccnc3cc(Cl)ccc23)CC1

[A]
0.67
1.25

Need log10 of GI50 for each of these molecules.
1. O=C(NC1CCCCC1)N1CCN(c2ccnc3cc(Cl)ccc23)CC1
2. O=C(Nc1c(Cl)cc(Cl)cc1Cl)N1CCN(c2ccnc3cc(Cl)ccc23)CC1
3. O=C(Nc1ccc(C(F)(F)F)cc1)N1CCN(c2ccnc3cc(C(F)(F)F)ccc23)CC1

[A]
1: 1.21; 2: 1.35; 3: 0.04

Record log10 of GI50 per entry; entries follow.
1. O=C(Nc1cccc2ccccc12)N1CCN(c2ccnc3cc(Cl)ccc23)CC1
2. FC(F)(F)c1ccc2c(N3CCN(C(=S)Nc4ccc(Cl)cc4)CC3)ccnc2c1
3. Cc1ccc(C)c(NC(=O)N2CCN(c3ccnc4cc(C(F)(F)F)ccc34)CC2)c1
4. FC(F)(F)c1ccc2c(N3CCN(C(=S)Nc4c(Cl)cc(Cl)cc4Cl)CC3)ccnc2c1
5. Cc1ccc(C)c(NC(=O)N2CCN(c3ccnc4cc(Cl)ccc34)CC2)c1
6. S=C(Nc1ccccc1)N1CCN(c2ccnc3cc(Cl)ccc23)CC1

[A]
1: 1.34; 2: 0.90; 3: 0.88; 4: 0.74; 5: 1.30; 6: 1.28
